Biological target: T1, human LIGHT (TNFSF14), full length, membrane-bound (214E allele) (human, UniProt O43557 1-240)
T1 construct: also called membrane LIGHT; human membrane LIGHT
T1 sequence (O43557 whole entry K214E): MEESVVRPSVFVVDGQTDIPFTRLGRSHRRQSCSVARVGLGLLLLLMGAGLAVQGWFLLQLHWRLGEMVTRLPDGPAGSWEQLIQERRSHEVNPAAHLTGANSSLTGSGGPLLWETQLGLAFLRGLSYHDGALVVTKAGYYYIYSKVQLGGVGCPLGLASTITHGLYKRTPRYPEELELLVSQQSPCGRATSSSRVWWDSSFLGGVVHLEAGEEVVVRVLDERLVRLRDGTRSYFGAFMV
Experiment: DcR3-His (1 nM) competition, EL4-LIGHT, flow cytometry; 0.41 nM
endpoint: DcR3-His binding, % of irrelevant mAb
Could you write the number and then its unit?

binder	DcR3-His binding, % of irrelevant mAb
3A07 (antibody, human IgG4, V domains shown, chimeric human IgG4 (S-to-P, L-to-E at 248), human CL; also called Parental 3A07) VH: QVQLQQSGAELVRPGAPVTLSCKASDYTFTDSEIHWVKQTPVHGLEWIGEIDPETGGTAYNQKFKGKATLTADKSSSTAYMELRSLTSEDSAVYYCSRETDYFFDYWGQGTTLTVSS VL: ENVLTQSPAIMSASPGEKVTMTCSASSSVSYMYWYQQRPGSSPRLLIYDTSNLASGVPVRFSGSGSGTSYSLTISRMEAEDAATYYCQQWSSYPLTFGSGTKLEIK	102%

Record 3B04 (antibody, human IgG4, V domains shown, chimeric: mouse variable domains on human IgG4 HC (S-to-P and L-to-E at 248) and human CL; also called Parental 3B04; 3B04 chimeric) VH: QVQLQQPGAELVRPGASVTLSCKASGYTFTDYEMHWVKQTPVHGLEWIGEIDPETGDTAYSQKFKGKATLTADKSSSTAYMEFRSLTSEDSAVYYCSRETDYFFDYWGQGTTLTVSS VL: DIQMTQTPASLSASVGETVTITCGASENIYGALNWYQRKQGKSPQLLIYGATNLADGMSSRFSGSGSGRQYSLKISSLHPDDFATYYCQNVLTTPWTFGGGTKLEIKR . Reported DcR3-His binding, % of irrelevant mAb: 94.8%

Record summary for 3D12 (antibody, human IgG4, V domains shown, chimeric: mouse variable domains on human IgG4 HC (S-to-P and L-to-E at 248) and human CL; also called Parental 3D12; 3D12 chimeric) VH: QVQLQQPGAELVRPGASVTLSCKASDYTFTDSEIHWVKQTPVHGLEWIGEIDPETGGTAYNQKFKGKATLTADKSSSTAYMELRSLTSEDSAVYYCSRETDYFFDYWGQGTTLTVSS VL: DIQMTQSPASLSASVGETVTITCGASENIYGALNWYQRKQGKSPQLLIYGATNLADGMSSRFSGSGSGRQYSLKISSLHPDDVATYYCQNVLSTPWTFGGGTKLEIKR : reported DcR3-His binding, % of irrelevant mAb = 99.4%
